Documented Plant response rating, Foxtail, Green across a set of compounds
System: green foxtail (Setaria viridis)
Experiment Summary: Test B pre-/postemergence plant response
Type: in vivo
Study Conditions: Postemergence, 250 g ai/ha; scale 0 to 100 (0 no effect, 100 complete control)
Readout Type: Plant response rating, Foxtail, Green

| Compound | Measured |
| --- | --- |
| O=C1CCCC(O)=C1C(=O)c1cnc(-c2ccccc2)n(C2CC2)c1=O [Compound 90] | 90 |
| CC(C)Cc1ncc(C(=O)C2=C(O)CCCC2=O)c(=O)n1-c1ccccc1 [Compound 68] | 95 |
| O=C1CCCC(O)=C1C(=O)c1cnc(-c2ccsc2)n(CC2CCCO2)c1=O (stereo not shown) [Compound 98] | 95 |
| CCCn1c(-c2cccc(OC)c2)ncc(C(=O)C2=C(O)CCCC2=O)c1=O [Compound 100] | 85 |

* * *

Tested on: barnyardgrass (Echinochloa crus-galli)
Experiment Summary: Test B flooded paddy test
Format: in vivo
Study Conditions: 250 g ai/ha; flooded paddy test; visual rating on 0 to 100 scale (0 no effect, 100 complete control) after 13 to 15 days
Readout Type: Plant response rating, Flood, Barnyardgrass

| Compound | Measured |
| --- | --- |
| CCCCc1ncc(C(=O)C2=C(O)CCCC2=O)c(=O)n1-c1ccccc1C | 0 |
| CCn1c(-c2cccc(F)c2)ncc(C(=O)C2=C(O)CCCC2=O)c1=O | 30 |
| CCCCn1c(-c2cccc(C)c2)ncc(C(=O)C2=C(O)C3CCC(C3)C2=O)c1=O (stereo not shown) | 50 |
| CCn1c(-c2ccccc2)ncc(C(=O)C2=C(O)CCCC2=O)c1=O | 0 |
| COc1ccccc1-n1c(-c2ccccc2)ncc(C(=O)C2=C(O)CCCC2=O)c1=O | 35 |
| O=C1CCCC(O)=C1C(=O)c1cnc(-c2ccc(Br)cc2)n(-c2ccccc2)c1=O | 20 |
| CCCn1c(-c2ccccc2)ncc(C(=O)C2=C(O)C3CCC(C3)C2=O)c1=O (stereo not shown) | 95 |
| O=C1CCCC(O)=C1C(=O)c1cnc(-c2ccccc2)n(-c2ccccc2Br)c1=O | 0 |
| Cc1cc(-n2c(-c3cccc(Br)c3)ncc(C(=O)C3=C(O)CCCC3=O)c2=O)ccc1F | 30 |
| Cc1ccc(-n2c(-c3ccccc3)ncc(C(=O)C3=C(O)CCCC3=O)c2=O)c(Cl)c1 | 30 |
| CC(C)c1ncc(C(=O)C2=C(O)CCCC2=O)c(=O)n1-c1ccccc1 | 40 |
| O=C1CCCC(O)=C1C(=O)c1cnc(-c2ccsc2)n(C2CCCCC2)c1=O | 55 |
| Cc1ccc(Cl)cc1-n1c(-c2ccccc2)ncc(C(=O)C2=C(O)CCCC2=O)c1=O | 55 |
| Cc1cccc(C)c1-n1c(-c2ccccc2)ncc(C(=O)C2=C(O)CCCC2=O)c1=O | 0 |
| Cc1cc(Cl)ccc1-n1c(-c2ccccc2)ncc(C(=O)C2=C(O)CCCC2=O)c1=O | 20 |
| Cc1ccc(Cl)cc1-n1c(-c2cccc(Cl)c2)ncc(C(=O)C2=C(O)CCCC2=O)c1=O | 50 |

* * *

Tested on: morningglory (Ipomoea coccinea)
Experiment Summary: Test B pre-/postemergence plant response
Type: in vivo
Study Conditions: Postemergence, 125 g ai/ha; scale 0 to 100 (0 no effect, 100 complete control)
Readout Type: Plant response rating, Morningglory

| Molecule | Target | Readout Type | Measured |
| --- | --- | --- | --- |
| O=C1CCCC(O)=C1C(=O)c1cnc(-c2ccsc2)n(CC2CCCO2)c1=O (stereo not drawn) | morningglory (Ipomoea coccinea) | Plant response rating, Morningglory | 100 |
| COCCn1c(-c2cccs2)ncc(C(=O)C2=C(O)CCCC2=O)c1=O | morningglory (Ipomoea coccinea) | Plant response rating, Morningglory | 100 |
| O=C1CCCC(O)=C1C(=O)c1cnc(-c2ccccc2)n(C2CCCCCC2)c1=O | morningglory (Ipomoea coccinea) | Plant response rating, Morningglory | 100 |

* * *

Test system: johnsongrass (Sorghum halepense)
Experiment Summary: Test B pre-/postemergence plant response
Assay type: in vivo
Study Conditions: Postemergence, 250 g ai/ha; scale 0 to 100 (0 no effect, 100 complete control)
Readout Type: Plant response rating, Johnsongrass

| Chem Smiles | Target | Measured |
| --- | --- | --- |
| COCCn1c(-c2ccco2)ncc(C(=O)C2=C(O)CCCC2=O)c1=O | johnsongrass (Sorghum halepense) | 40 |
| COCCOCCn1c(-c2ccccc2)ncc(C(=O)C2=C(O)CCCC2=O)c1=O | johnsongrass (Sorghum halepense) | 100 |
| COCCCn1c(-c2cccc(F)c2)ncc(C(=O)C2=C(O)CCCC2=O)c1=O | johnsongrass (Sorghum halepense) | 90 |
| O=C1CCCC(O)=C1C(=O)c1cnc(C2CC2)n(-c2ccccc2)c1=O | johnsongrass (Sorghum halepense) | 45 |
| CCCCc1ncc(C(=O)C2=C(O)CCCC2=O)c(=O)n1-c1ccccc1C | johnsongrass (Sorghum halepense) | 10 |
| CCCn1c(-c2cccc(OC)c2)ncc(C(=O)C2=C(O)CCCC2=O)c1=O | johnsongrass (Sorghum halepense) | 25 |
| CCCn1c(-c2ccccc2)ncc(C(=O)C2=C(O)CCCC2=O)c1=O | johnsongrass (Sorghum halepense) | 70 |

* * *

Documented Plant response rating, Rice across a set of compounds
Test system: rice (Oryza sativa)
Experiment Summary: Test B flooded paddy test
Format: in vivo
Study Conditions: Flood (flooded paddy test), 62 g ai/ha; scale of 0 to 100 where 0 is no effect and 100 is complete control; 13 to 15 days
Readout Type: Plant response rating, Rice

| Compound | Target | Measured |
| --- | --- | --- |
| Cc1ccc(-n2c(-c3cc(F)cc(F)c3)ncc(C(=O)C3=C(O)CCCC3=O)c2=O)cc1 | rice (Oryza sativa) | 25 |
| Cc1cc(-n2c(-c3cccc(Br)c3)ncc(C(=O)C3=C(O)CCCC3=O)c2=O)ccc1F | rice (Oryza sativa) | 0 |
| CCCn1c(-c2ccc(Br)cc2)ncc(C(=O)C2=C(O)CCCC2=O)c1=O | rice (Oryza sativa) | 0 |
| O=C1CCCC(O)=C1C(=O)c1cnc(-c2ccccc2)n(C2CCOCC2)c1=O | rice (Oryza sativa) | 0 |
| CCCCn1c(CCC)ncc(C(=O)C2=C(O)CCCC2=O)c1=O | rice (Oryza sativa) | 0 |
| CCCn1c(C2CC2)ncc(C(=O)C2=C(O)CCCC2=O)c1=O | rice (Oryza sativa) | 35 |
| COCCn1c(-c2ccco2)ncc(C(=O)C2=C(O)CCCC2=O)c1=O | rice (Oryza sativa) | 0 |
| Cc1c(F)cccc1-n1c(-c2ccccc2)ncc(C(=O)C2=C(O)C3CCC(C3)C2=O)c1=O (stereo not drawn) | rice (Oryza sativa) | 0 |
| Cc1cccc(-c2ncc(C(=O)C3=C(O)CCCC3=O)c(=O)n2-c2ccc(F)cc2C)c1 | rice (Oryza sativa) | 0 |
| CCn1c(-c2cccc(F)c2)ncc(C(=O)C2=C(O)C3CCC(C3)C2=O)c1=O (stereo not drawn) | rice (Oryza sativa) | 0 |
| O=C(C1=C(O)C2CCC(C2)C1=O)c1cnc(-c2cc(F)cc(F)c2)n(-c2ccccc2)c1=O (stereo not drawn) | rice (Oryza sativa) | 30 |
| O=C1CCCC(O)=C1C(=O)c1cnc(C2CC2)n(-c2ccccc2)c1=O | rice (Oryza sativa) | 20 |
| O=C1CCCC(O)=C1C(=O)c1cnc(-c2ccsc2)n(CC2CCCO2)c1=O (stereo not drawn) | rice (Oryza sativa) | 0 |
| COCCn1c(-c2cccc(Br)c2)ncc(C(=O)C2=C(O)CCCC2=O)c1=O | rice (Oryza sativa) | 10 |
| O=C1CCCC(O)=C1C(=O)c1cnc(-c2cccs2)n(CC2CCCO2)c1=O (stereo not drawn) | rice (Oryza sativa) | 0 |

* * *

Tested on: velvetleaf (Abutilon theophrasti)
Experiment Summary: Test A pre-/postemergence plant response
Format: in vivo
Study Conditions: Preemergence, 125 g ai/ha; 0 to 100 scale, 0 = no effect, 100 = complete control
Readout Type: Plant response rating, Velvetleaf

| Compound | Measured |
| --- | --- |
| CCCn1c(-c2cccc(OC)c2)ncc(C(=O)C2=C(O)CCCC2=O)c1=O | 60 |
| Cc1cc(Cl)ccc1-n1c(-c2ccccc2)ncc(C(=O)C2=C(O)CCCC2=O)c1=O | 60 |
| COc1cccc(-c2ncc(C(=O)C3=C(O)CCCC3=O)c(=O)n2C2CCCCC2)c1 | 0 |
| CC(C)c1ncc(C(=O)C2=C(O)CCCC2=O)c(=O)n1-c1ccccc1 | 80 |
| Cc1ccc(Cl)cc1-n1c(-c2cccc(Cl)c2)ncc(C(=O)C2=C(O)CCCC2=O)c1=O | 30 |
| O=C1CCCC(O)=C1C(=O)c1cnc(C2CCCC2)n(-c2ccccc2)c1=O | 90 |
| O=C1CCCC(O)=C1C(=O)c1cnc(-c2ccccc2)n(CCC(F)(F)F)c1=O | 70 |
| O=C1CCCC(O)=C1C(=O)c1cnc(-c2ccccc2)n(-c2ccc(F)cc2)c1=O | 90 |
| O=C1CCCC(O)=C1C(=O)c1cnc(-c2cc(F)cc(F)c2)n(CC2CCCO2)c1=O (centres unmarked) | 80 |
| O=C1CCCC(O)=C1C(=O)c1cnc(-c2cccc(Br)c2)n(-c2ccccc2)c1=O | 70 |
| O=C1CCCC(O)=C1C(=O)c1cnc(-c2ccsc2)n(C2CCCCC2)c1=O | 80 |
| CCCn1c(-c2ccsc2)ncc(C(=O)C2=C(O)CCCC2=O)c1=O | 90 |
| CCn1c(-c2cccc(F)c2)ncc(C(=O)C2=C(O)C3CCC(C3)C2=O)c1=O (centres unmarked) | 80 |
| CCCn1c(-c2cc(F)cc(F)c2)ncc(C(=O)C2=C(O)CC(C)(C)CC2=O)c1=O | 50 |
| CCCn1c(-c2cccc(C)c2)ncc(C(=O)C2=C(O)CCCC2=O)c1=O | 50 |
| O=C1CCCC(O)=C1C(=O)c1cnc(-c2cccc(Br)c2)n(C2CCCCC2)c1=O | 0 |
| COCCCn1c(-c2cccc(Cl)c2)ncc(C(=O)C2=C(O)CCCC2=O)c1=O | 70 |
| O=C1CCCC(O)=C1C(=O)c1cnc(-c2ccccc2)n(C2CC2)c1=O | 70 |
| CCCCn1c(-c2cccc(C)c2)ncc(C(=O)C2=C(O)C3CCC(C3)C2=O)c1=O (centres unmarked) | 0 |
| CCn1c(-c2cccc(F)c2)ncc(C(=O)C2=C(O)CCCC2=O)c1=O | 70 |
